IC50 reference
Target: human IBAT (Homo sapiens, UniProt Q12908)
Construct: expressed in transfected cells; host or cells: Baby hamster kidney (BHK) cells, clone H14
Assay: In vitro assay of IBAT-mediated uptake of [14C]-taurocholate (TC) in H14 cells
Assay type: cell-based
Settings: read-out: Human TC IC50
State the answer as a number, implicitly in nM.

Answered examples (6):
molecule: CCCCC1(CCCC)CS(=O)(=O)c2ccc(N(C)C)cc2C(c2cccc(OCCOCCOCC[N+](CC)(CC)CCNS(=O)(=O)N(C)C)c2)C1O (stereo not shown) [Example 1363]
endpoint_unit: nM
IC50: 8

molecule: CCCCC1(CCCC)CS(=O)(=O)c2ccc(SC)cc2C(c2ccc(F)cc2)C1O (stereo not shown) [Example 1156]
endpoint_unit: nM
IC50: 39

molecule: CCCCC1(CCCC)CS(=O)(=O)c2ccc(OC)cc2C(c2cccc([N+](C)(C)C)c2)C1O (stereo not shown) [Example 1196]
endpoint_unit: nM
IC50: 2000

molecule: CCCCC1(CC)CS(=O)(=O)c2ccc(N(C)C)cc2C(c2cccc(C)c2)C1O (single isomer, unassigned) [Example 1225]
endpoint_unit: nM
IC50: 120

molecule: CCCCC1(CCCC)CS(=O)(=O)c2ccc(N(C)C)cc2C(c2cccc([N+](=O)[O-])c2)C1O (stereo not shown) [Example 1256]
endpoint_unit: nM
IC50: 11

molecule: CCCCC1(CCCC)CS(=O)(=O)c2ccc(N(C)C)cc2C(c2cccs2)C1O (stereo not shown) [Example 1262]
endpoint_unit: nM
IC50: 30

Provide the documented IC50 with human IBAT (Homo sapiens, UniProt Q12908) as the system for CCCCC1(CCCC)CS(=O)(=O)c2ccc(N(C)C)cc2C(c2ccc(OCCCCOCCCC[N+](CC)(CC)CC)c(F)c2)C1O (stereo not shown) [Example 1031]
2

---

Below, each entry is listed with its recorded pIC50.
Target: human IBAT (Homo sapiens, UniProt Q12908)
Construct: expressed in transfected cells; host or cells: Baby hamster kidney (BHK) cells, clone H14
Sequence (Q12908 1-348): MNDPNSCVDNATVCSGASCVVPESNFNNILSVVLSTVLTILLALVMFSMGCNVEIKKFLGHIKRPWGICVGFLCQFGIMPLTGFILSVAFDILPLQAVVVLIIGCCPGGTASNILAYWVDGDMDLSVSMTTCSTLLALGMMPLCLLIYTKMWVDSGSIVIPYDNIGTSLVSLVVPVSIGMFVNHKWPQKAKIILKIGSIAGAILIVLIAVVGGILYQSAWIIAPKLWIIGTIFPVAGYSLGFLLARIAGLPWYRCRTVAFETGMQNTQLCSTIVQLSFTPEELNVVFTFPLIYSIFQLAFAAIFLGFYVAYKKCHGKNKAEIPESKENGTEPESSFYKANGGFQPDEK
Experiment: In vitro assay of IBAT-mediated uptake of [14C]-taurocholate (TC) in H14 cells
Type: cell-based
Details: Human TC IC50
Kindly note that pIC50 refers to -log10 of the concentration in mol/L and answer with the value alone.

molecule: CCCCC1(CC)CS(=O)(=O)c2ccc(N(C)C)cc2C(c2ccccc2)C1O (stereo not drawn) [Example 1159]
pIC50: 7.22

If you can, please state the reported pIC50 value of CCCC[C@]1(CC)CS(=O)(=O)c2ccc(N(C)C)cc2[C@@H](c2ccccc2)[C@H]1O .
8.25

---

Molecular target: human IBAT (Homo sapiens)
Construct: expressed in transfected cells; host or cells: Baby hamster kidney (BHK) cells, clone H14
Sequence (Q12908 1-348): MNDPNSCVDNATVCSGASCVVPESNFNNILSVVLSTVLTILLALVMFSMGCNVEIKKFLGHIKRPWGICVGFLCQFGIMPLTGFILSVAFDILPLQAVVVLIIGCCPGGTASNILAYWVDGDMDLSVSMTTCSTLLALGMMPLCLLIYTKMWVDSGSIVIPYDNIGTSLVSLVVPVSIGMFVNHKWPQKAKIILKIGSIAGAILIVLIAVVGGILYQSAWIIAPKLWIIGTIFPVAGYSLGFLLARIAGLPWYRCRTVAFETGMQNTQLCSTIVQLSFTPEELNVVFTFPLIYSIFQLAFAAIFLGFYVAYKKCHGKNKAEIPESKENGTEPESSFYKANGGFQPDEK
Assay: In vitro assay of IBAT-mediated uptake of [14C]-taurocholate (TC) in H14 cells
Assay type: cell-based
Conditions: read-out: Human TC IC50
// boundary case: IC50 equal to 200 nM maps to no; strictly smaller maps to yes

Please review the following examples before continuing.
compound: CCCCC1(CCCC)CS(=O)(=O)c2ccc(N(CC)CC)cc2C(c2cccc(OC)c2)C1O (stereo not shown) [Example 1147]
label: yes

compound: CCCCC1(CC)CS(=O)(=O)c2ccc(N(C)C=O)cc2C(c2ccccc2)C1=O (stereo not shown) [Example 1197]
label: no

compound: CCC1(CC)CS(=O)(=O)c2ccc(N)cc2[C@@H](c2ccccc2)[C@H]1O [Example 287]
label: no

compound: CCCCC1(CCCC)CS(=O)(=O)c2ccc(N(C)C)cc2C(c2ccc(C[n+]3ccccc3)cc2)C1O (stereo not shown) [Example 1254]
label: no

compound: CCCCC1(CCCC)CS(=O)(=O)c2ccc(N(C)C)cc2C(c2cccc(OCCOCCOCC[n+]3ccc(CC)cc3)c2)C1O (stereo not shown) [Example 1084]
label: yes

Please check: IC50 for CCCCC1(CCCC)CS(=O)(=O)c2ccc(N(C)COCC)cc2C(c2ccccc2)C1O (stereo not shown) [Example 1152] , strictly under 200 nM or not?
yes

---

Target: human IBAT (Homo sapiens, UniProt Q12908)
Construct: expressed in transfected cells; host or cells: Baby hamster kidney (BHK) cells, clone H14
Assay: In vitro assay of IBAT-mediated uptake of [14C]-taurocholate (TC) in H14 cells
Assay type: cell-based
Conditions: read-out: Human TC IC50
Criterion: IC50 strictly under 90 nM. Met: satisfied. Not met: not satisfied.

Solved entries:
molecule: CCCCCCCCC[N+](CCCCCCCCC)(CCCCCCCCC)CCOCCOCCOc1cccc(C2c3cc(N(C)C)ccc3S(=O)(=O)CC(CCCC)(CCCC)C2O)c1 (stereo not shown)
label: satisfied
//
molecule: CCCCC1(CCCC)CS(=O)(=O)c2ccc(N(C)C)cc2C(c2cccc(OCCOCCOCC[n+]3ccc(CO)cc3)c2)C1O (stereo not shown)
label: satisfied
//
molecule: CCCCC1(CCCC)CS(=O)(=O)c2ccc(N(C)C)cc2C(c2cccc(OCCOCCOCC[N+](CC)(CC)CCO)c2)C1O (stereo not shown)
label: satisfied
//
molecule: CCCCC1(CCCC)CS(=O)(=O)c2ccc(N(C)C)cc2C(c2cccc(CBr)c2)C1O (stereo not shown)
label: satisfied
//
molecule: CCCCN(C)c1ccc2c(c1)C(c1cccc(OC)c1)C(O)C(CCCC)(CCCC)CS2(=O)=O (stereo not shown)
label: not satisfied

Here is the next item to consider.
I wonder whether CCCCC1(CC)CS(=O)(=O)c2ccc(N)cc2C(c2ccccc2)C1O (stereo not shown) [Example 1310] has IC50 below 90 nM. Can you tell?
not satisfied

---

Target: human IBAT (Homo sapiens, UniProt Q12908)
Construct: expressed in transfected cells; host or cells: Baby hamster kidney (BHK) cells, clone H14
Assay: In vitro assay of IBAT-mediated uptake of [14C]-taurocholate (TC) in H14 cells
Type: cell-based
Conditions: read-out: Human TC IC50
pIC50 values, listed per item
Would you please state pIC50, meaning minus log10 of the concentration in mol/L, as a bare number?

molecule: CCCCC1(CCCC)CS(=O)(=O)c2ccc(NC(C)C)cc2C(c2ccc(F)cc2)C1O (centres unmarked)
pIC50: 6.68

molecule: CCCCC1(CC)CS(=O)(=O)c2ccc(N)cc2C(c2ccc(F)cc2)C1O (single isomer, unassigned) [Example 127]
pIC50: 6.26

molecule: CCCCC1(CCCC)CS(=O)(=O)c2ccc(N(C)C)cc2C(c2cccc(OCCOCCOCC[N+](CC)(CC)CCC(C)=O)c2)C1O (centres unmarked)
pIC50: 7.72

molecule: CCCCC1(CCCC)CS(=O)(=O)c2ccc(N(C)C)cc2C(c2ccc(OCCOCC[N+]3(CC)CCCCC3)c(F)c2)C1O (centres unmarked)
pIC50: 8.52

molecule: CCCCC1(CC)CS(=O)(=O)c2ccc(OC)cc2C(c2cccc(C(F)(F)F)c2)C1O (single isomer, unassigned) [Example 265]
pIC50: 5.70

molecule: CCCCC1(CCCC)CS(=O)(=O)c2ccc(N(C)C)cc2C(c2ccc(CBr)cc2)C1O (centres unmarked)
pIC50: 7.30

// returns reported pIC50 for input CCCCC1(CCCC)CS(=O)(=O)c2ccc(N(C)C)cc2C(c2ccc(OCCOCC[N+]34CCN(CC3)CC4)c(F)c2)C1O (centres unmarked)
8.40

Quick one: pIC50 for CCCCC1(CCCC)CS(=O)(=O)c2ccc(N(C)C)cc2C(c2cccc(OCCOCCOCC[N+]34CCN(CC3)CC4)c2)C1O (centres unmarked) ?
8.22

Please give the measured pIC50 for this molecule: CCCCC1(CCCC)CS(=O)(=O)c2ccc(N(C)C)cc2C(c2cccc(OCCOCCOCC[N+](C)(C3CCCCC3)C3CCCCC3)c2)C1O (centres unmarked)
8.22
